These entries and their values trace back to patent US20070197430A1.

Molecular target: GST tagged Bcl w delta C29 protein (UniProt Q92843)
Assay: AlphaScreen GST detection; competitor: biotinylated BimBH3 peptide; second of two values
pIC50: −log10 of the molar value. Bridge positions count the residues as written; N and C are the ends.

binder	pIC50
Ac-IAQELRRIGDEF-NH2 [Linear 12mer Ac-…-NH2]	6.10
Ac-IAQELRRIGDEF-NH2 (linker 4-11 via 1,5‑diaminopentane) [Acetyl-IAQ(E1)LRRIGD(E2)F-amide with a 1,5-diaminopentane linker (second position)]	7.47
